B1: CLCN6 (parent)
chain: TGLVGLFVDFFVRLFTQLKFGVVQ

Variants of: B1
ASSAY_COMMENT: protein stability index of a GFP-peptide fusion (GPS, HEK-293T) (PSI 1-6); higher = more stable;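 further: lentivirally expressed fusions sorted by FACS into six bins by GFP to DsRed ratio, PSI derived from sequencing read proportions per bin multiplied by bin number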
TEST_PARAMETERS: c terminus: a fixed tail appended
// protein stability index lookup, one value per entry
Please give the numeric answer without any surrounding text.

Field: example entries. Status: answers known.
VARIANT_STRING	protein stability index
L18V	1.98
F11G	1.76
L3V	2.42

Query: Using known records, supply protein stability index for `F20H`
Result: 2.58

Query: Using known records, supply protein stability index for `Q17A`
Result: 2.38

Query: Write down protein stability index measured for item `G5A`
Result: 2.19

Query: Supply measured protein stability index of `V8C` in your reply.
Result: 2.25

Query: Answer with the recorded protein stability index for the variant listed here: `T16K`
Result: 2.76

Query: Please look at this variant and report its protein stability index: `V4I`
Result: 2.56

Query: Identify protein stability index associated with the variant `L14K`
Result: 2.34

Query: // Input: `V22F` . Output its protein stability index only.
Result: 2.6

Query: # return recorded protein stability index for entry `Q17R`
Result: 3.5

Query: Read off the recorded protein stability index for `V4P`
Result: 2.05

Query: Please supply the value of reported protein stability index for the item `F15R`
Result: 2.27

Query: Annotate the variant `L6C` with its measured protein stability index.
Result: 2.69

Query: Report measured protein stability index; entry is `T16V`
Result: 1.78

Query: Give reported protein stability index value for `Q17K`
Result: 2.48

Query: Indicate the recorded protein stability index value for this variant: `Q17S`
Result: 2.81

Query: Recall and state the measured protein stability index for `V23R` .
Result: 3.09

Query: // Input: `L3G` . Output its protein stability index only.
Result: 1.4

Query: Supply measured protein stability index of `D9I` in your reply.
Result: 2.68

Query: Give a short answer stating reported protein stability index for `D9H` .
Result: 2.61
